- Test system: OVCAR-5
- experimentNotes: Antiproliferative activity against human OVCAR5 cells assessed as growth inhibition after 48 hrs by sulforhodamine B assay
- Format: functional
- measurementContext: OVCAR-5, 48 h
quantityMeasured: GI50 (nM)
Write the value in nM as a bare number.

Here's what some known entries look like.
N=C(N)c1ccc(-c2ccc(-c3ccc(Cl)cc3)s2)s1 | 1580
COc1ccc2cc(-c3ccc(-c4ccc(C(=N)N)s4)s3)ccc2c1 | 2110
COc1cc(OC)cc(-c2ccc(-c3ccc(C(=N)N)o3)o2)c1 | 2340
N=C(N)c1ccc(-c2ccc(-c3ccc(F)cc3)o2)o1 | 1660
N=C(N)c1ccc(-c2ccc(-c3ccc(Cl)cc3)o2)o1 | 1820

[ask] What value of GI50 has been recorded for this entry: `COc1cc(-c2ccc(-c3ccc(C(=N)N)s3)s2)cc(OC)c1OC`
[reply] 1470

* * *

- System: CAKI-1
- experimentNotes: Antiproliferative activity against human CAKI-1 cells assessed as growth inhibition after 48 hrs by sulforhodamine B assay
- Assay type: functional
- measurementContext: CAKI-1, 48 h
quantityMeasured: GI50

Here's what some known entries look like.
N=C(N)c1ccc(-c2ccc(-c3ccc(Cl)cc3)o2)o1 | 1.69 µM
COc1ccc2cc(-c3ccc(-c4ccc(C(=N)N)s4)s3)ccc2c1 | 8.29 µM
N=C(N)c1ccc(-c2ccc(-c3ccc(F)cc3)s2)s1 | 1.68 µM
N=C(N)c1ccc(-c2ccc(-c3ccc4ccccc4c3)s2)s1 | 3.11 µM

[ask] What value of GI50 has been recorded for this entry: `COc1ccc(-c2ccc(-c3ccc(C(=N)N)o3)o2)cc1`
[reply] 1.75 µM

[ask] What value of GI50 has been recorded for this entry: `N=C(N)c1ccc(-c2ccc(-c3ccc(Cl)cc3)s2)s1`
[reply] 1.61 µM

[ask] What value of GI50 has been recorded for this entry: `N=C(N)c1ccc(-c2ccc(-c3cc(Cl)cc(Cl)c3)o2)o1`
[reply] 1.7 µM

* * *

Overview of reported GI50 across a group of compounds:
- System: CAKI-1
- experimentNotes: Antiproliferative activity against human CAKI-1 cells assessed as growth inhibition after 48 hrs by sulforhodamine B assay
- Format: functional
- measurementContext: CAKI-1, 48 h
Write the value in nM as a bare number.

COc1cc(OC)cc(-c2ccc(-c3ccc(C(=N)N)o3)o2)c1 | 4330
N=C(N)c1ccc(-c2ccc(-c3ccc(F)cc3)o2)o1 | 1710

In the following, a different compound is considered.
[ask] What value of GI50 has been recorded for this entry: `N=C(N)c1ccc(-c2ccc(-c3cc(Cl)cc(Cl)c3)s2)s1`
[reply] 1720
